# experimental_target: Factor X, P00742
# Sequence (P00742 whole entry, looked up): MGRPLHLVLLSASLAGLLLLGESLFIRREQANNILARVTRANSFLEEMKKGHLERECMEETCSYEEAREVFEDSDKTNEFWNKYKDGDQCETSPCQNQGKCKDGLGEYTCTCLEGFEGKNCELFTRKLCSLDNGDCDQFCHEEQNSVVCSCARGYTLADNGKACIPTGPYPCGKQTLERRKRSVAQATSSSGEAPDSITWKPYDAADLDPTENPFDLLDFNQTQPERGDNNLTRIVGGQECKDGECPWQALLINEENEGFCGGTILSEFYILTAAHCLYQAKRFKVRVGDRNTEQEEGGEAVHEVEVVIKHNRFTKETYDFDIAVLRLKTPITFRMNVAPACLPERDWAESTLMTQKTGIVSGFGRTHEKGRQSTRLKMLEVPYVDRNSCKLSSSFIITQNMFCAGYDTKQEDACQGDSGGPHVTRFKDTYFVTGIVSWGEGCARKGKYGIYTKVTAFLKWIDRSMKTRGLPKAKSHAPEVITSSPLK
reported_endpoint: KM (FX activation by FIXa in Xase complex with FVIIIa, PC/PS vesicles, Ca2+)
Note to self: number, then unit, no commentary.

| protein | result |
| --- | --- |
| FIXa D104N/K106S/N260S/R318Y/R338E/R403E/E410N (protein) chain 1: YNSGKLEEFVQGNLERECMEEKCSFEEAREVFENTERTTEFWKQYVDGDQCESNPCLNGGSCKDDINSYECWCPFGFEGKNCELDVTCNIKNGRCEQFCKNSANNSVVCSCTEGYRLAENQKSCEPAVPFPCGRVSVSQTSKLTR chain 2: VVGGEDAKPGQFPWQVVLNGKVDAFCGGSIVNEKWIVTAAHCVETGVKITVVAGEHNIEETEHTEQKRNVIRIIPHHNYSAAINKYNHDIALLELDEPLVLNSYVTPICIADKEYTNIFLKFGSGYVSGWGRVFHKGYSALVLQYLRVPLVDRATCLESTKFTIYNNMFCAGFHEGGRDSCQGDSGGPHVTEVEGTSFLTGIISWGEECAMKGKYGIYTKVSEYVNWIKNKTKLT | 0.0611 µM |

The record that follows has no KM (FX activation by FIXa in Xase complex with FVIIIa, PC/PS vesicles, Ca2+) shown yet.
### Prompt What value of measured KM (FX activation by FIXa in Xase complex with FVIIIa, PC/PS vesicles, Ca2+) is listed for FIXa K247N/N249S/R338E/R403E/E410N (protein) chain 1: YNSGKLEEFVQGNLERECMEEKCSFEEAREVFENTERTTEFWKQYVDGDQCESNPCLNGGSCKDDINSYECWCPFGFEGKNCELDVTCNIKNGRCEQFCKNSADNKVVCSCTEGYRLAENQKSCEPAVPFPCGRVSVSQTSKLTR chain 2: VVGGEDAKPGQFPWQVVLNGKVDAFCGGSIVNEKWIVTAAHCVETGVKITVVAGEHNIEETEHTEQNRSVIRIIPHHNYNAAINKYNHDIALLELDEPLVLNSYVTPICIADKEYTNIFLKFGSGYVSGWGRVFHKGRSALVLQYLRVPLVDRATCLESTKFTIYNNMFCAGFHEGGRDSCQGDSGGPHVTEVEGTSFLTGIISWGEECAMKGKYGIYTKVSEYVNWIKNKTKLT ?
### Response 0.025 µM
